meta.source: PubChem BioAssay

Consider the following compounds; for each one, report its z-score.
Test: MELAS cybrid and Rieske KO viability enhancers – cell-based, MELAS cybrids, Rieske KO mouse fibroblasts, CellTiter-Glo, primary screen (AID 1508586);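 further: test concentration not given here; z relative to plate mean and SD of compound and empty wells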
Conditions: MELAS cybrid survival, low glucose, CellTiter-Glo 48 h; stronger effect = higher value
Numbers only.

Study these solved cases before continuing.
O=C(Nc1cn[nH]c1-c1nc2ccc(CN3CCOCC3)cc2[nH]1)NC1CC1 | 2.04
O=C(O)C(O)Cc1ccc(O)c(O)c1 (stereo not given) | -0.385
Cc1ccc(C(=O)Nc2ccc(CN3CCN(C)CC3)c(C(F)(F)F)c2)cc1C#Cc1cnc2[nH]ncc2c1 | 0.831

I would be grateful if you could provide z-score for each of the following entries.
1. CCS(=O)(=O)N1CC(CC#N)(n2cc(-c3ncnc4[nH]ccc34)cn2)C1
2. COCCOc1nc(-c2ccc(Cl)c(Cl)c2)n(-c2ccc(NC(=O)CCl)cc2)n1

Return:
-0.48
-0.782

I would be grateful if you could provide z-score for each of the following entries.
1. COc1ccc(-n2c(C)c([N+](=O)[O-])c3ccc(O)cc32)cc1
2. COc1cc2ncnc(Nc3cccc(Cl)c3)c2cc1OC
3. N#CCNC(=O)c1ccc(-c2ccnc(Nc3ccc(N4CCOCC4)cc3)n2)cc1

Return:
1: 0.252; 2: -0.433; 3: 5.22

I would be grateful if you could provide z-score for each of the following entries.
1. Cc1cnc(Nc2ccc(OCCN3CCCC3)cc2)nc1Nc1cccc(S(=O)(=O)NC(C)(C)C)c1
2. CC(C)(C)c1cnc(CSc2cnc(NC(=O)C3CCNCC3)s2)o1

Return:
1.98
0.429
